- experimental conditions: in ethyl acetate, 319.05 K
readout type: solubility (mole fraction)
Answers are plain numbers.

Recall and state the measured solubility (mole fraction) for c1ccc(OP2(Oc3ccccc3)=NP(Oc3ccccc3)(Oc3ccccc3)=NP(Oc3ccccc3)(Oc3ccccc3)=N2)cc1 .
0.119

* * *

- experimental conditions: in methanol, 313.25 K
readout type: solubility (mole fraction)
Answers are plain numbers.

Recall and state the measured solubility (mole fraction) for CP(=O)(O)c1ccccc1 .
0.406

* * *

- experimental conditions: in dichloromethane, 298.35 K
readout type: solubility (mole fraction)
Numbers only.

Recall and state the measured solubility (mole fraction) for CP(=O)(O)c1ccccc1 .
0.104

* * *

- experimental conditions: in toluene, 303.25 K
readout type: solubility (mole fraction)
Give bare numbers.

Recall and state the measured solubility (mole fraction) for CP(=O)(O)c1ccccc1 .
0.168
